Target: WRN [UniPro: Q14191 (WRN_HUMAN), N500-C946] (Homo sapiens (Human))
Sequence (Q14191 500-946): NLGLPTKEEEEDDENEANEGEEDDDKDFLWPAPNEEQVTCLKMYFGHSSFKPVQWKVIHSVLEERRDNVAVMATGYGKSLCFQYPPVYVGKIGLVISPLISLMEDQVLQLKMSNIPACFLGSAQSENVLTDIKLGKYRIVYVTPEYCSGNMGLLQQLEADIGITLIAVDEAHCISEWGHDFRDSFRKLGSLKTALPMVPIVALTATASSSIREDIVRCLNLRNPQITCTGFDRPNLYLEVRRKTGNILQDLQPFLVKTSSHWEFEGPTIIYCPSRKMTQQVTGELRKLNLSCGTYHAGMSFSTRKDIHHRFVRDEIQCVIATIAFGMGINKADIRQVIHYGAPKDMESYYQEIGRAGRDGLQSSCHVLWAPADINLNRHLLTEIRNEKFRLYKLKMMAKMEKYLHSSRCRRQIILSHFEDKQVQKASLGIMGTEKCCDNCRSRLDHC
Experiment: WRN unwinding assay (FORKF DNA, fluorescence)
Assay type: biochemical
Conditions: Table 14
pIC50: −log10 of the molar value.
Measured pIC50 by item

// known answers, use as guide
STRUCTURE STRING: CCc1c(N2CCN(C(=O)CNC(=O)OC(C)(C)C)CC2)c(=O)n2nc(C3=CCOCC3)nc2n1CC(=O)Nc1ccc(C(F)(F)F)cc1Cl
TESTED TARGET: WRN [UniPro: Q14191 (WRN_HUMAN), N500-C946] (Homo sapiens (Human))
READOUT LABEL: pIC50
ASSAY RESULT: 6.00 to 7.00
//
STRUCTURE STRING: CCc1c(N2CCN(C(=O)c3[nH]cnc3C(F)(F)F)CC2)c(=O)n2nc(C3=CCOCC3)nc2n1CC(=O)Nc1ccc(C(F)(F)F)cc1Cl
TESTED TARGET: WRN [UniPro: Q14191 (WRN_HUMAN), N500-C946] (Homo sapiens (Human))
READOUT LABEL: pIC50
ASSAY RESULT: > 7.00

Field: next compound
Measured pIC50, "CCc1c(N2CCN(S(=O)(=O)NC(=O)c3ccccc3)CC2)c(=O)n2nc(C3=CCOCC3)nc2n1CC(=O)Nc1ccc(C(F)(F)F)cc1Cl" : > 7.00
